system_under_test: T1, MCL-1 (UniProt Q07820 172-327, limits assumed)
T1 construct: Target of the Ki columns; also called Myeloid cell leukemia 1
procedure_summary: Ki; method not stated; unit not printed (nM per Table 6)
Starred links: 1 amine or outer side, 2 acyl side, 3 side chain; linkers in the order of their positions; H or OH if unused. Positions of bridges follow the written chain, without caps; N, C: chain ends. Non-standard residues stand in square brackets, D forms with d. St = two pentenyl-alanine olefin side chains, each crosslinked to another residue (stitch), C=CCCCC(CCCC=C)(N[*:1])C(=O)[*:2]; R8 = C=CCCCCCC[C@@](C)(N)C(=O)O; S8 = C=CCCCCCC[C@](C)(N)C(=O)O; S5 = C=CCCC[C@](C)(N)C(=O)O
We begin with a simple list: items and their reported Ki.
Hi! Could you send only the number? It should be in nM, unit omitted.

Solved cases below.
IWIAQALRAIGDAXNAYYA (N-terminal Ac; $r8 at 9 and $ at 16 (crosslinked); Bip at 14; C-terminal NH2) [SEQ ID NO: 1747] : 6.5
Ac-IWIA[S5]ALR[St]IGDEFN[S8]YYA-NH2 (staple 9-16, 5-9, Row prints Ac-IWIA$ALRStIGDEFN$s8YYA-NH2) [SEQ ID NO: 1783] : 1.6

Now consider the entry below.
(Q) Annotate the binder Ac-I[R8]IAQALR[St]IGDEFN[S8]YYA-NH2 (staple 9-16, 2-9, Row prints Ac-I$r8IAQALRStIGDEFN$s8YYA-NH2) [SEQ ID NO: 1782] with its measured Ki.
(A) 1.1

Sourced from patent US20180273587A1
